B1: library; a variant is named by its letters at N, in order (parent)
chain: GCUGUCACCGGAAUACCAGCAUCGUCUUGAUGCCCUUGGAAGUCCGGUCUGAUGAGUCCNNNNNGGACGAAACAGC

variants of: B1; assay: normalized RNA/DNA level without ligand (relative to sTRSVctl = 100) (log10 (% of sTRSVctl)); higher = less ribozyme self-cleavage, higher mRNA level; details: HEK293T, reporter: mCherry (pCS4076), ligand present: no
variants and their reported normalized RNA/DNA level without ligand (log10)
API doc: respond with a numeric literal and nothing else, no unit.

Worked examples follow.
Change	Measured value
CGAAA	1.31
GUACU	1.93
CCUAU	1.87
AUACG	1.83
UCCUA	2.01
UUGCC	1.95

Request: Which normalized RNA/DNA level without ligand (log10) value belongs to CUUUC ?
Response: 2

Request: Which normalized RNA/DNA level without ligand (log10) value belongs to ACUAU ?
Response: 1.84

Request: Which normalized RNA/DNA level without ligand (log10) value belongs to UGGUG ?
Response: 1.87

Recorded values, source the supplement of paper PMC6757056.
